Origin of values: ChEMBL document CHEMBL1201862

# GI50 per record follows
- Tested on: HOP-92
- test: NCI tumour cell line growth inhibition, 48 h
Active and inactive are the calls of the source. No stated cut-off is given here; in the data, active = GI50 up to about 1.1 µM and inactive = higher.

O=[N+]([O-])c1ccc(Cc2nc3cc4ccccc4cc3[nH]2)cc1C(F)(F)F    14.9 µM (inactive)
COC1(OC)C[C@H](C)[C@@]23O[C@]24c2cc(O)c5c(c2N[C@H]3C#C/C=C\C#C[C@]14O)C(=O)c1ccccc1C5=O    0.00107 µM (active)
CC(C)(C)OC(=O)Cn1ncn(NC(=O)Cc2ccccc2)c1=S    > 10 µM (inactive)
N#Cc1ccc(C2ON=C(c3ccccc3)N2C23CC4CC(CC(C4)C2)C3)cc1 (stereo not given)    > 10 µM (inactive)
Cc1cn(Cc2ccccc2CCl)c(=O)[nH]c1=O    25.4 µM (inactive)

Read off the recorded GI50 for CCOC(OCC)c1ccc(/C=C/c2cc(OC)c(OC)c(OC)c2)cc1
21.8 µM (inactive)

Give me measured GI50, please, for this compound: CN1CC[N+](C)=C1c1ccccc1
> 100 µM (inactive)

Provide one value: measured GI50 of COc1ccc(C(C)Nc2cc(OC)c(OC)c(OC)c2)cc1 (stereo not given)
1.56 µM (inactive)

Answer with reported GI50 of COc1ccc(C(F)(F)F)cc1NC(=O)O/N=C(/Cl)C(C)C
7.33 µM (inactive)

Determine its reported GI50: COc1ccc2c(c1)-c1c(c3cc(OC)ccc3n1CCN(C)C)CC2
14.1 µM (inactive)

Give reported GI50 value for COc1cc2c(c(OC)c1)C(=O)C(=O)C(CC1(C)OCCCO1)=C2
1.89 µM (inactive)

For the compound CCOC(=O)Cn1c(=O)ccn(COCCO)c1=O , report GI50.
> 100 µM (inactive)

Name the recorded GI50 of the item CCOC(=O)c1nc2cc(F)cc(F)c2[nH]c1=O in your answer.
> 100 µM (inactive)

Report measured GI50; entry is COc1ccc2c(c1)CC1c3c(ccc(OC)c3O)CC2N1C (stereo not given)
28.1 µM (inactive)

Output GI50 of Nc1c2c(nc3ccccc13)CCCc1ccccc1-2
10.1 µM (inactive)

Given CC(C)CCC[C@@H](C)C1CCC2[C@@H]3CCC4CC(CCC=C(c5cc(Cl)c(OC(=O)c6ccccc6)c(C(=O)O)c5)c5cc(Cl)c(OC(=O)c6ccccc6)c(C(=O)O)c5)CC[C@]4(C)C3CC[C@@]21C (stereo not given in full) , respond with its GI50.
28.1 µM (inactive)

Let me know recorded GI50 for CCOC(=O)NC(=O)c1c[nH]c(=O)[nH]c1=O , thanks.
> 100 µM (inactive)

Given the compound CCCCCc1cc2c(cc1O)CC[C@@H]1[C@@H]2CC[C@]2(C)[C@@H](O)CC[C@@H]12 , write its reported GI50.
14.3 µM (inactive)

Give recorded GI50. CC(C)(C)N1CSC(=S)N(Cc2ccco2)C1
1.55 µM (inactive)

Give me measured GI50, please, for this compound: COc1cc2c3cc1Oc1cc(ccc1O)C[C@@H]1c4c(cc(OC)c(O)c4Oc4ccc(cc4)C[C@@H]3N(C)CC2)CC[N+]1(C)C
11.6 µM (inactive)
